# assay_system: UniProtKB P13945
# method_description: HTRF cAMP antagonist assay (IC50 determination)
# setup_conditions: CHO-K1 cells stably expressing recombinant receptor; antagonism of isoproterenol at EC90; cAMP readout
reported_metric: IC50 (nM)

Observe how each entry below is paired with its result.
CCOc1ccc(-c2ccc(CCNC(C)=O)cc2)cc1S(=O)(=O)N1CCC2(CC1)C[C@H](NC[C@H](O)COc1cccc(S(=O)(=O)C3(CO)CC3)c1)CO2 = 50.6
NCc1ccc(-c2cccc(S(=O)(=O)N3CCC4(CC3)C[C@@H](NC[C@H](O)COc3cccc(S(=O)(=O)C5(CO)CC5)c3)CO4)c2)cc1 = 25.7
CS(=O)(=O)c1cccc(OC[C@@H](O)CNC2COC3(CCN(S(=O)(=O)c4ccc5ccccc5c4)CC3)C2)c1 (stereo partly drawn) = 4.42
CCOC(=O)C(C)(C)S(=O)(=O)c1cccc(OC[C@@H](O)CN[C@H]2COC3(CCN(S(=O)(=O)c4cnc5ccccc5c4)CC3)C2)c1 = 81.9

I. CCC(C)S(=O)(=O)c1cccc(OC[C@@H](O)CNC2COC3(CCN(S(=O)(=O)c4ccc5ccccc5c4)CC3)C2)c1 (stereo partly drawn)
II. CCn1cc(S(=O)(=O)N2CCC3(CC2)C[C@H](NC[C@H](O)COc2cccc(S(=O)(=O)C4(CO)CC4)c2)CO3)c(=O)c2ccccc21
Q. Looking at I and II , which one comes out lower in IC50 terms? # answer = label of selected item
A. I

----------
# assay_system: Beta-3 Adrenergic Receptor (Homo sapiens (Human), UniProt P13945)
# Sequence (P13945 whole entry, species assumed): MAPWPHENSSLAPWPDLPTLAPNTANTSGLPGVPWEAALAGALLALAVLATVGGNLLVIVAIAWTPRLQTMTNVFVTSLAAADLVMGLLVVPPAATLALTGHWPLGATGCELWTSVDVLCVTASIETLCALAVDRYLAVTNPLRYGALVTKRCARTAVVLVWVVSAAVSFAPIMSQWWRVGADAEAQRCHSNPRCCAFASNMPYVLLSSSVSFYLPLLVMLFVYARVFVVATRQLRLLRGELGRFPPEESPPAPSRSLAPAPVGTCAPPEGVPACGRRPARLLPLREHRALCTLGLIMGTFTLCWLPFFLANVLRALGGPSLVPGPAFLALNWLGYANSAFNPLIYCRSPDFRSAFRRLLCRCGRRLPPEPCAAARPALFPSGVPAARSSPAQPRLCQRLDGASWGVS
# method_description: HTRF cAMP antagonist assay (IC50 determination)
# setup_conditions: CHO-K1 cells stably expressing recombinant receptor; antagonism of isoproterenol at EC90; cAMP readout
reported_metric: IC50 (µM)

See these solved cases before continuing.
COc1ccc(S(=O)(=O)N2CCC3(CC2)C[C@H](NC[C@H](O)COc2cccc(S(=O)(=O)C4(CO)CC4)c2)CO3)cc1-c1ccc(CCN)cc1 [Compound 215] = 0.0384
CCn1cc(S(=O)(=O)N2CCC3(CC2)C[C@@H](NC[C@H](O)COc2cccc(S(=O)(=O)C(C)C)c2)CO3)c(=O)c2cccc(F)c21 [Compound 331] = 0.03
CN1CCOc2ccc(S(=O)(=O)N3CCC4(CC3)CC(NC[C@H](O)COc3cccc(S(C)(=O)=O)c3)CO4)cc21 (stereo partly drawn) [Compound 32] = 0.0211
CCOc1ccc(-c2ccc(CN)cc2)cc1S(=O)(=O)N1CCC2(CC1)C[C@H](NC[C@H](O)COc1cccc(S(C)(=O)=O)c1)CO2 [Compound 231] = 0.0196
O=S(=O)(CCO)c1cccc(OC[C@@H](O)CN[C@H]2COC3(CCN(S(=O)(=O)c4cccc(-c5ccccn5)c4)CC3)C2)c1 [Compound 100] = 0.0922

I. CS(=O)(=O)c1cccc(OC[C@@H](O)CNC2COC3(CCN(S(=O)(=O)c4ccc5occc5c4)CC3)C2)c1 (stereo partly drawn) [Compound 61]
II. NC(=O)CS(=O)(=O)c1cccc(OC[C@@H](O)CN[C@H]2COC3(CCN(S(=O)(=O)c4ccc5ncccc5c4)CC3)C2)c1 [Compound 137]
Q. Which has the smaller recorded IC50, I or II ? Choose, then provide that item's label.
A. I
